# PROCEDURE_SUMMARY: Cytotoxicity against human 786-O cells assessed as cell survival after 72 hrs by CellTiter-96 aqueous one solution assay
# Assay type: cell-based, 786-0
# COND: read-out: LC50
Reported CC50 at 72 h is given for each of the following molecules.
Give your result in µM as a bare value.

// below: answered molecules
- MOLECULE: "Oc1cc(Cl)ccc1Oc1ccc(Cl)cc1Cl [TRICLOSAN]"
  CC50 at 72 h / µM: 4.2
- MOLECULE: "O=C(COc1ccccc1)NCCSc1c[nH]c2ccccc12"
  CC50 at 72 h / µM: 30
- MOLECULE: "O=C(C(=O)N1CC=C(c2ccccc2)CC1)c1c[nH]c2ccccc12"
  CC50 at 72 h / µM: 63

From here, focus on the item given below.
// query CC50 at 72 h value for entry "O=C(CC1CCCCC1)N1CCC(c2nc(-c3ccc(S(=O)(=O)N4CCCC4)cc3)no2)CC1"
7
